# Target Or Test System: T1, human MSLN-R3-3 polypeptide (human)
# T1 construct: Part of region R3 of human MSLN; also called hMSLN-R3-3; human MSLN-R3-3 protein
# Assay Explanation: ELISA, coated antigen, antibody 10 nM
Property Label: OD450

>  <Binder>
S009-F6-62.5 chimeric antibody (antibody, human IgG1, kappa, V domains shown, Human-murine chimeric antibody, human IgG1/kappa constant regions) VH: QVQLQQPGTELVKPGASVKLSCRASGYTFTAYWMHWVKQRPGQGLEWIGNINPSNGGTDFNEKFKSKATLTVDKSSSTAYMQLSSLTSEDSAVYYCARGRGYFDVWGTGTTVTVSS VL: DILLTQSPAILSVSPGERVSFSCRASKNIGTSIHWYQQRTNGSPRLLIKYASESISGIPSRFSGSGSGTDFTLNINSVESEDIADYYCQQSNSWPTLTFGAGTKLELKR

>  <Property Label>
OD450

>  <Assay Result>
0.05

$$$$
